# EC50 values compiled below
Molecular target: UniProt P34972
Sequence (P34972 whole entry): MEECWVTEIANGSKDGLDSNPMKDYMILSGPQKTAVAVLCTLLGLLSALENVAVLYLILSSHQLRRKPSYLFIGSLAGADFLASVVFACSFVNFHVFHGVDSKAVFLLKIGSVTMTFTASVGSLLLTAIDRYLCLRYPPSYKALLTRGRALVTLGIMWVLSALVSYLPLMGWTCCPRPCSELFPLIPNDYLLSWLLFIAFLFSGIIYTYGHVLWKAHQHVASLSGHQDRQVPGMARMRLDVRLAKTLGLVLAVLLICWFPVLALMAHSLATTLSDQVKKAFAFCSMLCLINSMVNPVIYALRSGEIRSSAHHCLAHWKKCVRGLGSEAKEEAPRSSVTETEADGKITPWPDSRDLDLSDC
Assay: Cannabinoid CB2 receptor agonist activity (yeast reporter assay, FDGlu fluorescence)
Assay type: cell-based
Settings: EC50 value at the cloned human cannabinoid CB2 receptor
experimental_endpoint: EC50

query_smiles=N#Cc1cc(C#N)cc(Nc2ncc(C(=O)NCC3CCCCC3)c(C(F)(F)F)n2)c1 experimental_endpoint=EC50 result_value="0.3 to 1 µM"
query_smiles=CN(CC1CCCCC1)C(=O)c1cnc(Nc2cccc(Cl)c2)nc1C(F)(F)F experimental_endpoint=EC50 result_value="0.02 to 0.3 µM"
query_smiles=O=C(NCc1ccc(F)cc1)c1cnc(Nc2cccc(Cl)c2F)nc1C(F)(F)F experimental_endpoint=EC50 result_value="0.02 to 0.3 µM"
query_smiles=O=C(NCc1ccccc1)c1cnc(Nc2cc(Cl)cc(Cl)c2)nc1C(F)(F)F experimental_endpoint=EC50 result_value="0.02 to 0.3 µM"
query_smiles=N#Cc1ccc(CNC(=O)c2cnc(Nc3cccc(F)c3)nc2C(F)(F)F)cc1 experimental_endpoint=EC50 result_value="0.3 to 1 µM"
query_smiles=O=C(NCC1CCCCC1)c1cnc(Nc2ccc(F)cc2F)nc1C(F)(F)F experimental_endpoint=EC50 result_value="0.02 to 0.3 µM"
query_smiles=N#Cc1ccc(Nc2ncc(C(=O)NCC3CCC3)c(C(F)(F)F)n2)c(Cl)c1 experimental_endpoint=EC50 result_value="0.3 to 1 µM"
query_smiles=O=C(NCC1CCC1)c1cnc(Nc2cc(Cl)cc(Cl)c2)nc1C(F)(F)F experimental_endpoint=EC50 result_value="0.02 to 0.3 µM"
